- Tested on: A549 NSCLC
- Assay summary: NCI tumour cell line growth inhibition, 48 h
Readout name: TGI

Field request: TGI | item: CCN(Cc1ccc(OC)cc1)c1ccc(CO)c(Cl)c1 35.9 µM

Field request: TGI | item: O=C(O)c1ccc(N(/C=C/C(=O)C(F)(F)F)Cc2ccc(Cl)cc2)cc1 > 100 µM

Field request: TGI | item: CC(=O)CCC#Cc1ccccc1C(=O)C(C)=[N+]=[N-] > 100 µM

Field request: TGI | item: Cc1c(Cl)cccc1C(=O)Nc1nc2c(s1)CN(C(=O)Nc1cccc(C(F)(F)F)c1)CC2 > 50 µM

Field request: TGI | item: O=C(O)c1ccccc1CN1CCCC(C(=O)O)C1 (stereo not given) > 100 µM
